Experiment: Inhibition of human coronary artery smooth muscle cells (SMC's) proliferation, induced by platelet-derived growth factor (PDGF-BB) 20 ng mL.
Assay type: functional
Quantity kind: pIC50
Quick note: pIC50 means taking -log10 of the concentration in moles per liter.

Below are worked cases with known answers.
1) CCOC(=O)c1cc(OC)c(OC)cc1NC(=O)c1cc(OC)c(OC)c(OC)c1
6.51
2) COc1ccc(C(=O)Nc2cc(OC)c(OC)cc2C(N)=O)cc1OC
6.14
3) COc1ccc(/C=C/C(=O)Nc2ccccc2C(=O)O)cc1OC
4.61

The reported pIC50 of the compound CCOC(=O)c1cc(OC)c(OC)cc1NC(=O)c1cc(OC)c(OC(C)=O)c(OC)c1 was 5.51

----------
Assay: Inhibition of human coronary artery smooth muscle cells (SMC's) proliferation, induced by platelet-derived growth factor (PDGF-BB) 20 ng mL.
Assay type: functional
pIC50: −log10 of the molar value.
Quantity kind: pIC50

The reported pIC50 of the molecule COc1cc(C(=O)Nc2cc(C)ccc2C(N)=O)cc(OC)c1OC was < 5.70

The reported pIC50 of the molecule COc1cc(C(=O)Nc2ccccc2C(N)=O)cc(OC)c1OC was < 5.70

----------
Assay: Inhibition of human coronary artery smooth muscle cells (SMC's) proliferation, induced by platelet-derived growth factor (PDGF-BB) 20 ng mL.
Type: functional
Entries and their measured IC50 follow.

Below are worked cases with known answers.
1. CCOC(=O)c1ccccc1NC(=O)/C=C/c1ccc(OC)c(OC)c1
> 50000 nM
2. CCOC(=O)c1cc(OC)c(OC)cc1NC(=O)c1ccc(O)c(N)c1
> 2000 nM
3. COc1cc(C(=O)Nc2ccc(Cl)cc2C(N)=O)cc(OC)c1OC
> 2000 nM

As a next step, examine the compound that follows.
The reported IC50 of the compound COc1ccc(C(=O)Nc2cc(OC)c(OC)cc2C(=O)N(C)C)cc1OC was > 2000 nM
